test system: HEK293; assay: Cytotoxic Profiling of Annotated Libraries Using Quantitative High-Throughput Screening (AID 1296008); details: Five cell lines viability, CellTiter-Glo ATP luminescence, 48-72 h; note: nearly all actives have a fitted effect of over 60% in size
Results filed as inconclusive are left out. Activity calls are given as the source filed them. Calls come from the whole dose curve; as a rule, active = well fitted inhibition curve with a large enough effect; inconclusive = small, poorly fitted or top-dose-only effect; inactive = flat fitted curve, though single readings scatter.
Outcomes: active, inactive

Molecule | Assigned Category
Cc1cccc(C)c1-n1c(=O)c2cnc(Nc3ccc(N4CCN(C)CC4)cc3)nc2n2c3ccccc3nc12 | active
C=C1C[C@@]23CCC4[C@@](C)(CCC[C@@]4(C)C(=O)OC)C2CC[C@@H]1C3 (some centres undefined) | inactive
C=C(C)C1CCC2(C(=O)O[C@@H]3O[C@H](CO[C@@H]4O[C@H](CO)[C@@H](O)[C@H](O)[C@H]4O)[C@@H](O)[C@H](O[C@@H]4O[C@@H](C)[C@H](O)[C@@H](O)[C@H]4O)[C@H]3O)CCC3(C(=O)O)C(CCC4C5(C)CCC(O)C(C)(C)C5CCC43C)C12 (some centres undefined) | inactive
N#Cc1cnc2cnc(NCc3cccnc3)cc2c1Nc1ccc(F)c(Cl)c1 | active

* * *

biological target: Cytochrome P450 2D6 (Homo sapiens) (UniProt P10635); assay: Cytochrome P450 family 2 subfamily D member 6 (CYP2D6) small molecule antagonists: luciferase biochemical (cell-free) qHTS assay (AID 1645840); settings: P450-Glo CYP2D6 enzyme, luciferin luminescence, 1 h; series mostly up to 57.4 µM; note: nearly all actives have a fitted effect of over 55% in size; note: potency is the fitted concentration of half-maximal effect
Sequence (P10635 whole entry, looked up): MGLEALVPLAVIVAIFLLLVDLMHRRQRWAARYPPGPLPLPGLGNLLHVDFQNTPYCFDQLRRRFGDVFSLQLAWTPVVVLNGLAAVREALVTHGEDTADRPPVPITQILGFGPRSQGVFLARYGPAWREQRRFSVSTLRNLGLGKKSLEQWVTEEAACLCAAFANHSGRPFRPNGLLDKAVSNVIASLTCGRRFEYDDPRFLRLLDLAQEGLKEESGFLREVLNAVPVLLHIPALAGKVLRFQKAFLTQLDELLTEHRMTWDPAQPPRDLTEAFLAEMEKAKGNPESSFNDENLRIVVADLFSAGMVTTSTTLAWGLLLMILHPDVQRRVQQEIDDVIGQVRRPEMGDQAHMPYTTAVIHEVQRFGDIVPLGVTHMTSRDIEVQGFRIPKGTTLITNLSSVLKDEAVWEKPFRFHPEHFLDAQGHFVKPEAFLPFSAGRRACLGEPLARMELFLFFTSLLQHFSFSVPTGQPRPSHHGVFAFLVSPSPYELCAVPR
Inconclusive results are not listed. Calls of active or inactive are those of the source. The call rests on the fitted dose curve; in most records, active means well fitted inhibition curve with a large enough effect in the repeat runs; inconclusive means weak or mixed curves; inactive means flat fitted curve, though single readings scatter.
Measured Property: Potency

Compound | Measured Property | Value Measured
CC(C)(C#N)c1ccc(N2C(=O)OCc3cnc4ccc(-c5cnc6ccccc6c5)cc4c32)cc1 | Potency | inactive
COc1cc2nc(N3CCC(N4CCCCC4)CC3)nc(NC3CCCCCC3)c2cc1OC | Potency | 7.56 µM (active)
O=C1CC2(CCCC2)[C@H](O)C(=O)N1CCCCN1CCN(c2ncccn2)CC1 | Potency | 12 µM (active)
CS(=O)(=O)NCC1CCC(Nc2nc3c(s2)CCSc2ccccc2-3)CC1 (stereo not given) | Potency | 10.7 µM (active)
Cc1cc(OCc2nc(-c3ccccc3Cl)cs2)ccc1OCC(=O)O | Potency | inactive
CCCNc1ccc2ncc(-c3ccc4[nH]ncc4c3)n2n1 | Potency | inactive
O=C(CC(c1ccccc1)c1ccccc1)N1CCN(C(c2ccccc2)c2ccccc2)CC1 | Potency | inactive
O=C(O)c1cccc(S(=O)(=O)N2CCc3ccccc3C2)c1 | Potency | inactive
CCOCc1cc(OC)c(-c2ccc(C[C@H](NC(=O)c3c(F)cccc3F)C(=O)O)cc2)c(OC)c1 | Potency | inactive
O=C(Nc1ccc(S(=O)(=O)Nc2ccccc2Cl)c(Cl)c1)c1ccccn1 | Potency | inactive
CS(=O)(=O)N(CC(=O)NCC1CC1)c1cc(C(F)(F)F)ccc1Cl | Potency | inactive
CC(C)C(CO)Nc1nc(Nc2cc(N)cc(Cl)c2)c2ncn(C(C)C)c2n1 (stereo not given) | Potency | 23.9 µM (active)
Cn1c(=O)n(-c2ccc(C(C)(C)C#N)cc2)c2c3cc(C#Cc4cccnc4)ccc3ncc21 | Potency | inactive
Cc1cccc2c1NC(=O)C2(c1ccc(O)cc1)c1ccc(O)cc1 | Potency | 26.8 µM (active)
OC1CCC(Nc2ncc3nc(Nc4c(F)cc(F)cc4F)n([C@H]4CCOC4)c3n2)CC1 (stereo not given in full) | Potency | inactive
Cc1ccc(S(=O)(=O)Cc2nc(-c3ccc(C(=O)NCc4cccnc4)cc3)oc2C)cc1 | Potency | inactive
CC(C)c1nc(-c2ccc(NC(=O)Nc3cccc(C(F)(F)F)c3)c3ccccc23)c2c(N)nccn12 | Potency | 0.0674 µM (active)
O=C(Nc1nc2ccccc2n1CCc1ccccc1)c1ccccc1 | Potency | inactive
Cc1cc(-c2cc(O)ccc2Cl)cc2nnc(Nc3ccc(OCCN4CCCC4)cc3)nc12 | Potency | 16.9 µM (active)
Cn1cc(-c2ccc3nnc(Sc4ccc5nn(C)cc5c4)n3n2)cn1 | Potency | inactive
c1ccc(-c2csc(N3CCOCC3)n2)cc1 | Potency | inactive
CC(C)C(CO)Nc1nc(Nc2ccc(C(=O)O)c(Cl)c2)c2ncn(C(C)C)c2n1 (stereo not given) | Potency | inactive
Cc1[nH]c2ccccc2c1CCNC(=O)c1ccccc1F | Potency | 21.3 µM (active)
O=C(O)c1cc(-c2c(-c3ccccc3)nn3ccccc23)n[nH]c1=O | Potency | inactive
O=C(c1cccc(Cl)c1F)N1CCN(Cc2cccc(Nc3nccs3)n2)CC1 | Potency | 1.69 µM (active)
COc1c(Nc2ncc(Cl)c(N[C@H]3[C@@H](C(N)=O)[C@@H]4C=C[C@H]3C4)n2)ccc2c1CC[C@@H](N1CCOCC1)CC2 | Potency | 19 µM (active)
CC(Oc1ccc2[nH]nc(/C=C/c3cnn(CCO)c3)c2c1)c1c(Cl)cncc1Cl (stereo not given) | Potency | 2.39 µM (active)
CCOCCOC(=O)/C=C/c1ccc(OC)cc1 | Potency | inactive
Cc1ccc(C(=O)Nc2noc3ccccc23)cc1 | Potency | 7.56 µM (active)
O=C(CCc1nnc2n(Cc3ccc(Cl)cc3)c(=O)c3ccccc3n12)NCCC1=CCCCC1 | Potency | 7.56 µM (active)
COc1ccccc1Oc1ccc(N(Cc2cccnc2)S(=O)(=O)CC(F)(F)F)cc1 | Potency | 13.5 µM (active)
CC1(C)CC(NC(=O)C(=O)Nc2ccc(Br)cc2)CC(C)(C)N1 | Potency | inactive
CC[C@@](C)(Nc1ccnc(-c2c[nH]c3ncccc23)n1)C(=O)NCC(F)(F)F | Potency | 16.9 µM (active)
CN(c1ccccc1CNc1nc(Nc2ccc3c(c2)CC(=O)N3)ncc1C(F)(F)F)S(C)(=O)=O | Potency | 23.9 µM (active)
CCO[C@@H]1OC(=O)C[C@@H]1NC(=O)[C@@H]1CCCN1C(=O)[C@@H](NC(=O)c1ccc(N)c(Cl)c1)C(C)(C)C | Potency | inactive
Nc1nccn2c(C3CCC(C(=O)O)CC3)nc(-c3cc4cccc(Cl)c4[nH]3)c12 (stereo not given) | Potency | inactive
COc1cc(N2CCOCC2)ccc1Nc1ncc(Cl)c(Nc2ccccc2NS(C)(=O)=O)n1 | Potency | 15.1 µM (active)
CCOC(=O)Nc1cc(-c2ccc(C)c(NS(C)(=O)=O)c2)nn2c(C)nnc12 | Potency | inactive
CC(NC(=O)C(O)C(C)C)C(=O)NC1C(=O)N(C)CCc2ccccc21 (stereo not given) | Potency | inactive
CC[C@@H](N)CNc1ccnc(-c2cc(-c3cnn(C)c3)ccc2O)n1 | Potency | 9.52 µM (active)
